Assign melting point to each entry below.

Ask | May I ask what melting point has been recorded for CCCCc1ccc(-c2ccc(OC)cc2F)nc1 ?
Reply | 23.3 °C

Ask | May I ask what melting point has been recorded for CNC(=O)NCCNCC(O)COc1ccc(OCCOCC(C)C)cc1 (stereo not drawn) ?
Reply | 121 °C

Ask | May I ask what melting point has been recorded for COC(=O)c1c(C(=O)OC)c(-c2ccc(OC)c(OC)c2)c2sccc2c1O ?
Reply | 147 to 148 °C

Ask | May I ask what melting point has been recorded for CCCOC(=O)c1c(Cn2ccnc2)nc2cc(OC)c(OC)cc2c1-c1ccc(OC)c(OC)c1 ?
Reply | 166 to 168 °C

Ask | May I ask what melting point has been recorded for COC1(c2ccc(OC(C)=O)cc2)Sc2ccccc2N(C)C1=O (stereo not drawn) ?
Reply | 144 to 146 °C

Ask | May I ask what melting point has been recorded for COCC(=O)c1ccc(Br)nc1 ?
Reply | 110 to 112 °C

Ask | May I ask what melting point has been recorded for O=C(NC1CCCCC1)NS(=O)(=O)c1ccc2c(c1)CCN(C(=O)N1CCCC1)CC2 ?
Reply | 139 to 141 °C

Ask | May I ask what melting point has been recorded for NC(=O)N1CCCC(CC(=O)c2ccc(F)cc2)C1 (stereo not drawn) ?
Reply | 136 to 138 °C

Ask | May I ask what melting point has been recorded for FC(F)(F)c1ccc(/C=C/C=C/[C@H]2CC[C@H](SCc3ccc(Cl)cc3)CC2)cc1 ?
Reply | 142 to 144 °C

Ask | May I ask what melting point has been recorded for Cc1ccc2oc(-c3ccccc3[N+](=O)[O-])cc2c1 ?
Reply | 83 °C

Ask | May I ask what melting point has been recorded for Cn1c(Cc2cccc(C(F)(F)F)c2)nc2c(-c3cccc(C(=O)NCCC#N)c3)cccc21 ?
Reply | 168 to 169 °C

Ask | May I ask what melting point has been recorded for Cc1ccc2c(n1)sc1c(S)nnnc12 ?
Reply | 205 to 208 °C

Ask | May I ask what melting point has been recorded for CNC(=O)C(NC(=O)C(CC(=O)O)N1C=CN(c2ccc(-c3ccccc3)cc2)C1)C(C)(C)C (mixture of isomers) ?
Reply | 187 to 188 °C

Ask | May I ask what melting point has been recorded for CC1(C)CC(OC(=O)CCCCCCCCC(=O)OC2CC(C)(C)N(O)C(C)(C)C2)CC(C)(C)N1O ?
Reply | 101 °C

Ask | May I ask what melting point has been recorded for CC(C)N(O)C(=O)c1c(Cl)cccc1[Si](C)(C)C ?
Reply | 175 to 179 °C

Ask | May I ask what melting point has been recorded for Nc1ccc(Br)cc1CS(=O)(=O)c1ccccc1 ?
Reply | 140 to 141 °C

Ask | May I ask what melting point has been recorded for C=C(C)C(=O)NCCC(=O)Nc1cc(Cl)c(C)c(Cl)c1O ?
Reply | 150 to 152 °C

Ask | May I ask what melting point has been recorded for CCOC(=O)c1cn(C2CC2)c2c(F)c(-c3cc(C)nc(C)c3)c(F)cc2c1=S ?
Reply | 194 to 195 °C

Ask | May I ask what melting point has been recorded for Cc1cc(-n2cnn(CCC3CC3)c2=O)sc1C(=O)NCc1cccnc1 ?
Reply | 148 to 150 °C

Ask | May I ask what melting point has been recorded for CCc1nc2c(N)nc(C)c(C)c2n1CCCC(=O)N1CCOCC1 ?
Reply | 209 to 210 °C

Ask | May I ask what melting point has been recorded for Cc1cc(-c2csc(-c3cccc(C(=O)O)c3)n2)c(C)o1 ?
Reply | 174 to 175 °C

Ask | May I ask what melting point has been recorded for O=c1cc2c(nn1-c1ccc(Cl)cc1)-c1ccccc1S(=O)CC2 (stereo not drawn) ?
Reply | 233 to 234 °C

Ask | May I ask what melting point has been recorded for CC(C)(C)Cc1nc2cc(S(=O)(=O)c3ccccc3)ccc2n1CC1CC1 ?
Reply | 173 °C

Ask | May I ask what melting point has been recorded for COc1ccc(S(=O)(=O)N2C(=O)C(N)(c3ccccc3Cl)c3cc(Cl)ccc32)c(N)c1 (stereo not drawn) ?
Reply | 160 to 166 °C

Ask | May I ask what melting point has been recorded for CC(C)n1nc(-c2sc(NC(=O)Oc3ccccc3)nc2-c2ccccc2)ccc1=O ?
Reply | 205 to 207 °C

Ask | May I ask what melting point has been recorded for CC1(C)C(=O)N(c2ccc(C#N)c(C(F)(F)F)c2)C(=S)N1CCCCO ?
Reply | 78 to 79 °C

Ask | May I ask what melting point has been recorded for CCOC(=O)c1cc2c(C)ccc(N(CC)S(=O)(=O)c3cccs3)c2[nH]1 ?
Reply | 148 to 149 °C

Ask | May I ask what melting point has been recorded for CS(=O)(=O)NC(=O)c1cccc(-c2ccc(Cl)c(C(=O)NCC34CC5CC(CC(C5)C3)C4)c2)n1 ?
Reply | 160 to 162 °C

Ask | May I ask what melting point has been recorded for COC(=O)C1=C(C)NC2=C(C(=O)OC2)C1c1ccccc1C (stereo not drawn) ?
Reply | 224 to 225 °C

Ask | May I ask what melting point has been recorded for NCCC(=O)N(N)S(=O)(=O)c1ccccc1 ?
Reply | 135 to 137 °C

Ask | May I ask what melting point has been recorded for COCCCS(=O)(=O)NC(=O)/C=C/c1cc(OCC2CC2)nn1Cc1ccc(C(F)(F)F)cc1Cl ?
Reply | 137 to 138 °C

Ask | May I ask what melting point has been recorded for CNc1c(S(=O)(=O)C(F)(F)F)c(C#N)nn1-c1c(Cl)cc(C(F)(F)F)cc1Cl ?
Reply | 227 °C

Ask | May I ask what melting point has been recorded for O=S(=O)(c1ccc2c(Cl)cccc2c1)N1CC2CC1CO2 (stereo not drawn) ?
Reply | 132 to 133 °C
